Target: Recombinant active PAK 1 (Homo sapiens, UniProt Q13153)
Construct: purchased Calbiochem
Sequence (Q13153 whole entry): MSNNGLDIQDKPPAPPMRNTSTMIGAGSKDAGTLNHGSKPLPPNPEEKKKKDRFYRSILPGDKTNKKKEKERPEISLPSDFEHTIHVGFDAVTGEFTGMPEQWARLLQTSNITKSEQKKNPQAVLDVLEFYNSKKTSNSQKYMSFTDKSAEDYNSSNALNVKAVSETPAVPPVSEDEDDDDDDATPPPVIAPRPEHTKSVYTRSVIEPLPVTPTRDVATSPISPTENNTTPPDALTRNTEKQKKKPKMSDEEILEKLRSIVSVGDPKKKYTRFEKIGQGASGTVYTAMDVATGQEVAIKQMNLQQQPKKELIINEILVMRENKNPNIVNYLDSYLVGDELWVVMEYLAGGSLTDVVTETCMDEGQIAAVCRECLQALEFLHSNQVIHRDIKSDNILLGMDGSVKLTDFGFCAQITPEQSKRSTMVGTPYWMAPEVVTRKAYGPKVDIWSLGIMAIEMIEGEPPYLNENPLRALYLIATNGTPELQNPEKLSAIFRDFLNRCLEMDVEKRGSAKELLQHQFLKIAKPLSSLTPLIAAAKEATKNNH
Experiment: In vitro PAK1 kinase assay (MBP substrate, 32P-ATP)
Format: biochemical
Details: in vitro kinase assay; comparison between compounds / with OSU-03012
readout label: Relative PAK1 inhibitory potency (comparison in words)

[
  {
    "structure string": "NCCC(=O)Nc1ccc(-n2nc(CO)cc2-c2ccc3ccc4ccccc4c3c2)cc1",
    "result": "more potent"
  },
  {
    "structure string": "CNC(=O)c1cc(-c2ccc3ccc4ccccc4c3c2)n(-c2ccc(NC(=O)CCN)cc2)n1",
    "result": "more potent"
  },
  {
    "structure string": "CNC(=O)c1cc(-c2ccc3c(ccc4ccccc43)c2)n(-c2ccc(NC(=O)CCN)cc2)n1",
    "result": "more potent"
  }
]

###

System: BCPAP cells
Experiment: MTT cell viability assay, BCPAP
Type: cell-based, Human
Conditions: Homo sapiens, BCPAP, 72-hours of exposure, 1% FBS, mean±standard deviation (n=3), read-out: IC50 for reducing viability of BCPAP cells versus DMSO control
Here, each record is paired with measured IC50 data.
Give the value in nM but do not write nM after it.

[
  {
    "molecule": "CNC(=O)c1cc(-c2ccc3c(ccc4ccccc43)c2)n(-c2ccc(NC(=O)CN)cc2)n1",
    "readout label": "IC50",
    "result": 2900
  },
  {
    "molecule": "CCNC(=O)c1cc(-c2ccc3ccc4ccccc4c3c2)n(-c2ccc(NC(=O)CN)cc2)n1",
    "readout label": "IC50",
    "result": 2670
  },
  {
    "molecule": "NCC(=O)Nc1ccc(-n2nc(C(=O)NCc3ccccc3)cc2-c2ccc3ccc4ccccc4c3c2)cc1",
    "readout label": "IC50",
    "result": 2010
  }
]

Under BCPAP cells: IC50 value of NCC(=O)Nc1ccc(-n2nc(C(F)(F)F)cc2-c2ccc3ccc4ccccc4c3c2)cc1 ?
2340

Request body: readout IC50, system BCPAP cells, query CNC(=O)c1cc(-c2ccc3ccc4ccccc4c3c2)n(-c2ccc(NC(=O)CCN)cc2)n1 . Return the value.
2760

###

System: PAK phosphorylation of Vimentin (Ser56)
Assay: Western blot, PAK phosphorylation of Vimentin (Ser56) in thyroid cancer cells
Type: cell-based, Human
Details: 7.5 μM, 6 h, BCPAP, FTC133 and TPC1 cells (FIG. 3)
readout label: PAK phosphorylation of vimentin (Western blot)

[
  {
    "structure string": "NCCC(=O)Nc1ccc(-n2nc(C(F)(F)F)cc2-c2ccc3ccc4ccccc4c3c2)cc1",
    "target under test": "PAK phosphorylation of Vimentin (Ser56)",
    "result": "inhibited PAK"
  },
  {
    "structure string": "CC(C)NC(=O)c1cc(-c2ccc3ccc4ccccc4c3c2)n(-c2ccc(NC(=O)CN)cc2)n1",
    "target under test": "PAK phosphorylation of Vimentin (Ser56)",
    "result": "inhibited PAK"
  }
]

###

System: FTC133 cells
Assay: MTT cell viability assay, FTC133
Format: cell-based, Human
Conditions: 72-hours of exposure, 1% FBS, mean±standard deviation (n=3), read-out: IC50 for reducing viability of FTC133 cells versus DMSO control
readout label: IC50

Fill blank: measured IC50 of the compound CNC(=O)c1cc(-c2ccc3c(ccc4ccccc43)c2)n(-c2ccc(NC(=O)CCN)cc2)n1 [Compound 14] is ____.
5.42 µM
